Biological target: rHuPH20 (Homo sapiens)
Construct: made in house; host or cells: CHO cells (DG44 CHO, HZ24 plasmid, clone 2B2)
Sequence (P38567 36-482): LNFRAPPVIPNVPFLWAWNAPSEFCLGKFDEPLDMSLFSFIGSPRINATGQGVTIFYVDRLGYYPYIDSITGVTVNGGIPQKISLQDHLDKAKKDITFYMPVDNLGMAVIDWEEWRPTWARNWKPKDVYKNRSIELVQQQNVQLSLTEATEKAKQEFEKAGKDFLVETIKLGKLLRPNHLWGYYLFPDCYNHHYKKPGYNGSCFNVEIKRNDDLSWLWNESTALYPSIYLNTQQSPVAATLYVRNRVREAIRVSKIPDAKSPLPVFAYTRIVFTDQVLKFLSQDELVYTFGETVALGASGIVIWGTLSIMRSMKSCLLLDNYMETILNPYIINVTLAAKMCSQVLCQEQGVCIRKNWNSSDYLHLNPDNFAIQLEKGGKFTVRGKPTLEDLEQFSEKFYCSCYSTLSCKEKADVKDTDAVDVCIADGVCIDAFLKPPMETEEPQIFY
Assay: Determination of hyaluronidase activity of rHuPH20, turbidimetric assay (Example 2, variant not specified)
Type: biochemical
Settings: 24 hours, 25° C.; in U/mL
Where rHuPH20 activity equals or exceeds 8000, the correct label is label 1; where it does not, the label is label 0.

MOLECULE	ANSWER LABEL
OCCCCCl [4-Chloro-1-butanol]	label 0
C[CH2][Hg][S]c1ccccc1C(=O)[O-].[Na+] [Thimerosal]	label 1
N[C@@H](Cc1ccccc1)C(=O)O [L-Phenylalanine]	label 1

Now turn to the next molecule.
Is rHuPH20 activity at least 8000? Consider N=C(NCCCCCCNC(=N)NC(=N)Nc1ccc(Cl)cc1)NC(=N)Nc1ccc(Cl)cc1.O=C(O)[C@H](O)[C@@H](O)[C@H](O)[C@H](O)CO.O=C(O)[C@H](O)[C@@H](O)[C@H](O)[C@H](O)CO [Chlorhexidine digluconate] label 1
